Where these numbers come from: PubChem BioAssay (NCI)

Tested on: OVCAR-5 ovarian
Experiment: NCI-60 one-dose screen, 48 h
Conditions: 10 µM unless noted
The panel holds about 83,000 compounds, 20% with a hit somewhere; the sample as a whole holds those more often. Activity calls are given as the source filed them. Rule for the calls: active = growth percent below 10; inactive = the rest.
Your response should consist of one outcome taken from Y = active, N = inactive

Query: Per the assay record, what outcome was assigned to "Cc1c2c(cc3c1[nH]c1ccccc13)C=NCC2" ?
Response: N

Query: Please indicate how the test categorized "CCN(CC)c1ccc2c(cc1=O)[C@@H](NC(C)=O)CCc1cc(OC)c(OC)c(OC)c1-2" .
Response: N

Query: // param item: "O=C1NN(C(=O)c2ccccc2)C(c2ccc(Cl)c(Cl)c2)=C/C1=C\c1ccccc1[N+](=O)[O-]" ; yields the recorded call
Response: Y

Query: Hello, I am checking results. What call was entered for "O=C(/C=C/c1cn(-c2ccccc2)nc1-c1ccccc1)OCc1cn(-c2cccc([N+](=O)[O-])c2)nn1" ?
Response: N

Query: State the result this test recorded for "COc1ccc(-c2nc3c(c(-c4ccc(Cl)cc4)nn3-c3ccccc3)c(-c3ccc(O)cc3)c2C#N)cc1" .
Response: N

Query: Could you please tell me the result logged for "Fc1cc(-c2cnc3nonc3n2)c(Cl)cc1Cl" in this assay?
Response: N

Query: GET /call?item= "CC(=O)Nc1ccc(/C=N/N2CCCCCC2)cc1" returns the recorded outcome of this test.
Response: N

Query: What classification did "Nc1c(Br)cc2c(c1Br)Cc1cc(Cl)ccc1-2" end up with in this test?
Response: N

Query: Test call for this molecule, please: "N/C(=N\O)c1ncc(-c2ccc(C(F)(F)F)cc2)c(NC2CCCCCC2)n1"
Response: Y

Query: Short answer needed: outcome of this test for "Cc1cc([N+](=O)[O-])c(C)cc1N" ?
Response: N

Query: // param item: "O=C(Nc1cccc(Cl)c1)Nc1ccccc1Cl" ; yields the recorded call
Response: N

Query: What did the test return for CC(C)CC1NC(=O)C(CC(C)C)N(CO)C1=O (centres undefined) ?
Response: N

Query: Which outcome was assigned to "CCOC(=O)Cc1cc(Br)c(OCc2ccccc2)c(Br)c1" in this test?
Response: N

Query: // param item: OC(CCCCCCCCC(O)CN1CCc2ccccc2C1)CN1CCc2ccccc2C1 (centres undefined) ; yields the recorded call
Response: N

Query: Give the logged outcome of this assay for the following molecule: "Cc1c(C(=O)CCl)c(=O)n(-c2ccccc2)n1C"
Response: N

Query: Assay result, entry CCCCCCCCCCCC1=NC(C)(C)CN1CC(C)O (centres undefined) — outcome?
Response: N

Query: Assay outcome for "O=C(Nc1ccc(-n2ccc3c(NC(=O)c4ccccc4)nccc32)cc1)c1ccc(N2CCOCC2)c(C(F)(F)F)c1" : what was it?
Response: N

Query: I'd appreciate the recorded outcome for "CS(=O)(=O)c1ccc(C(=O)N/N=C/c2ccccc2O)cc1" from this test.
Response: N

Query: State the result this test recorded for "c1cc2c(cc1-c1cnc3nonc3n1)OCO2" .
Response: N

Query: Outcome? "COc1ccc(NC(=O)c2sc3c(=O)[nH]c(C(F)(F)F)nc3c2C)cc1"
Response: N

Query: Would you mind telling me which call this test gave "C=CCN(CC#N)CC=C" ?
Response: N

Query: Could you check what this test reported for "Cn1c(=O)c2c(nc(N/N=C/c3ccccc3Cl)n2C)n(C)c1=O" ?
Response: N

Query: Could you please tell me the result logged for "Cc1c(C(N)=O)sc2ncn(CC(=O)NN=C3CCCCC3)c(=O)c12" in this assay?
Response: N

Query: For O=C1/C(=C/N2N=C(c3ccc(Cl)cc3)CC2c2ccccc2O)SC(=S)N1c1cccc(C(F)(F)F)c1 (centres undefined) , what call appears in the results of this test?
Response: N

Query: // param item: "COc1ccccc1CNCCCN1C(=O)c2ccc3c4c(ccc(c24)C1=O)C(=O)N(CCCCNCCCN)C3=O" ; yields the recorded call
Response: N

Query: Per the records of this test, what outcome belongs to "COc1cc([N+](=O)[O-])cc(OC)c1OC" ?
Response: N

Query: Just curious, what result did "C=CCOc1ccc2c(C)cc(=O)oc2c1" get here?
Response: N

Query: Which outcome was assigned to "O=C(NNC(=O)c1cccc(Cl)c1)c1ccccc1" in this test?
Response: N

Query: Called result for "COc1ccc(-c2cc(-c3ccc(OC)cc3)c3sc(=O)[nH]c3n2)cc1"
Response: N

Query: Tell me the recorded outcome of this test for "O=C(O)c1cc2cc(OCc3ccccc3)ccc2[nH]1" .
Response: N

Query: recorded result category for CCSCC1CC(O)(c2ccccc2)C(c2ccccc2)C(c2ccc(F)cc2)O1 (centres undefined) in this test
Response: Y

Query: Each molecule tested received a call. Report the one for "O=C(CCCCCCN1CC(=O)N2[C@@H](c3ccc(Cl)c(Cl)c3)c3[nH]c4ccccc4c3C[C@H]2C1=O)NO" .
Response: N

Query: Hi, do you know how COc1cc(C2CC(c3ccc(Cl)cc3)=NN2C(C)=O)ccc1Oc1ccnc2cc(Cl)ccc12 (centres undefined) came out in this test?
Response: N

Query: Record lookup: outcome of this test for "Cc1ccc(C(=O)CC(=O)C(F)(F)C(F)(F)C(F)(F)F)s1" ?
Response: N

Query: Outcome logged for "CC(C)(C)c1cc(C[P+](c2ccccc2)(c2ccccc2)c2ccccc2)cc(C(C)(C)C)c1O" in this assay:
Response: N

Query: Per the assay record, what outcome was assigned to Oc1c(C(Nc2ccccc2Br)c2ccccc2)ccc2cccnc12 (centres undefined) ?
Response: N

Query: Which outcome did this test record for the molecule "CCCCCCCCN(CCCCCCCC)C(=O)CCl" ?
Response: N

Query: // return assay outcome for "NNC(=O)CSc1nc2scc(-c3ccccc3)c2c(=O)n1-c1ccccc1"
Response: N

Query: Test call, this molecule: "CCCCCCCCCCCC1=NC(C)(C)CN1C(C)C"
Response: N

Query: Name the outcome recorded for "c1coc(CNc2c3ccccc3nc3ccccc23)c1" in the assay.
Response: N

Query: What call does the record list for "c1ccc2c(N=NSc3ncnc4nc[nH]c34)c3ccccc3nc2c1" ?
Response: Y

Query: Test call, this molecule: "CCN1CCN(Cc2ccc(NC(=O)Nc3ccc(-n4ccc5c(NC(=O)c6ccccc6)nccc54)cc3)cc2C(F)(F)F)CC1"
Response: N

Query: Name the outcome recorded for "O=C(N/N=C/c1ccccc1O)c1ccncc1" in the assay.
Response: N

Query: Identify the outcome logged in this assay for the molecule shown: "O=c1c2cc(Cl)ccc2oc2ccc(OCCCCCN3CCCCC3)cc12"
Response: N
